Log2 (fold change): recorded values
- Tested on: HBEGF locus
- Format: cell-based, human
- measurement_conditions: high-throughput screen of dXR repression of the HBEGF gene; change in abundance of each domain in the library before and after diphtheria toxin selection
Form rule: numeric answer, no unit written next to it.

molecule	Log2 (fold change)
DOMAIN_6737 (protein, Microcaecilia unicolor) QMLVTFEDIAVSFSKEEWEYLDEGQKELYREVMKENYQTLISLGTGFPTVIPEIISHIEQGDEPGSEERENGKSSCSGESG	2.4861

// next item, Log2 (fold change) requested
Noted for DOMAIN_29304: one of the nine most effective repressor domains (protein, listed as Peromyscus maniculatus) VTYNDVHVDITQEEWALMDPSQRNLYKDVMVETYMNLTAIGYNWENLEVEEPCQNPLKHGRHERPHTGEKPYEYNQCGKAFAQP : its Log2 (fold change) reads 4.0496
